Reference source for all entries: ChEMBL document CHEMBL1201862

Assignment: determine reported GI50 for the given molecules.
# Tested on: SN12C
# procedure_text: NCI tumour cell line growth inhibition, 48 h
Activity calls are given as the source filed them. Cut-off read from the data, not from the text of the source: active = GI50 up to about 1.1 µM and inactive = higher.

Consider the worked cases shown below.
molecule="CC1CCC(C(C)C2C(O)CC3C4CC=C5CC(O)CCC5(C)C4CCC32C)NC1 (stereo not drawn)" result="20.3 µM (inactive)"
molecule=Oc1ccncc1-c1cnccc1O result="> 100 µM (inactive)"
molecule=CC(C)CCNC(=O)c1ccc(CNC(=O)/C=C/c2cccc(Oc3ccccc3)c2)cc1 result="43.7 µM (inactive)"

Go through the list and state GI50 for each entry.
1. CCOC(=O)c1nnsc1NC(=O)NCCCCCCn1c(=O)n(CCCCCCNC(=O)Nc2snnc2C(=O)OCC)c(=O)n(CCCCCCNC(=O)Nc2snnc2C(=O)OCC)c1=O
2. CCC/N=C1\S/C(=C/c2ccc(OC)c(OC)c2)C(=O)N1c1ccccc1

1. 33.3 µM (inactive)
2. 54.8 µM (inactive)

====

# GI50 measurements, system: HCT-15

compound=COc1ccc2cc(C(=O)c3ccccc3C(=O)O)ccc2c1 result="> 100 µM"
compound="CC(=O)C12C[C@](C#N)(N3CCCCCC3)C1C=Cc1ccccc12 (stereo partly drawn)" result="> 100 µM"

Quick one: GI50 of Oc1ccncc1-c1cnccc1O ?
> 100 µM

====

Assignment: determine reported GI50 for the given compounds.
# Test system: UACC-257
# procedure_text: NCI tumour cell line growth inhibition, 48 h
The source made the active and inactive calls. Rule as the data show it: active = GI50 up to about 1.1 µM and inactive = higher.

compound="CC1(C)OCC(COC(=O)NCn2cc(-c3ccccc3)nn2)O1 (stereo not given)" assay_readout=GI50 result="> 100 µM (inactive)"

Go through the list and state GI50 for each entry.
1. O=C(CCC1C(=O)NC(=S)NC1=O)c1ccc2ccccc2c1
2. Nc1ccc2c(c1)CN1C(=O)c3ccccc3C1=N2
3. COc1ccc([Se]c2ccc(OC)cc2)cc1
4. O=C1OCC(C(=O)c2cccc(O)c2)C1=O (stereo not given)
5. CC1(C)CC(N2CCN(C3CC(C)(C)NC(C)(C)C3)CC2)CC(C)(C)N1
6. O=c1[nH]nc(-c2ccccc2)n1/N=C\c1ccccc1

> 100 µM (inactive)
96.6 µM (inactive)
48.2 µM (inactive)
> 100 µM (inactive)
> 100 µM (inactive)
> 100 µM (inactive)

Go through the list and state GI50 for each entry.
1. CN(/N=C/c1ccc(Cl)c(Cl)c1)C1=NCCCCN1
2. C[N+](C)(C)CCN(Cc1cccs1)c1ccccn1
3. CC(C)(C)c1cc(O)ccc1O

["22.6 µM (inactive)", "> 100 µM (inactive)", "9.08 µM (inactive)"]

Go through the list and state GI50 for each entry.
1. Nc1nc(Cl)c(N)c(NCC2(CO)CC(OCc3ccccc3)C2)n1 (stereo not given)
2. Cc1cc(C)nc(NS(=O)(=O)c2ccc(Nc3c4ccccc4nc4ccc(C(=O)Nc5ccc(S(N)(=O)=O)cc5)cc34)cc2)n1
3. CCCCCCCCCCCCCCCC(=O)Nc1ccn(C2CCC(COP(=O)(O)OCC3OC(n4cc(F)c(=O)[nH]c4=O)CC3OC(C)=O)O2)c(=O)n1 (stereo not given)
4. Cc1csc2nc3[nH]ncc3c(=O)n12
5. CC(=O)NC1C(=O)CC(c2ccccc2)N(C)C1c1ccccc1 (stereo not given)
6. Oc1cn(-c2ccc(Cl)cc2)nc1-c1n[nH]c(=S)n1-c1ccccc1
7. CO/C=C(/C(=O)OC)c1ccccc1[C@H]1C[C@@H]1c1ccccc1

48.4 µM (inactive)
> 100 µM (inactive)
14.7 µM (inactive)
> 100 µM (inactive)
> 100 µM (inactive)
20.7 µM (inactive)
15.8 µM (inactive)

Go through the list and state GI50 for each entry.
1. CC1(C)CN=C(Nc2ccc(Cl)cc2)S1
2. CCC(=O)NC(Nc1cccc(F)c1C)(C(F)(F)F)C(F)(F)F
3. COc1ccc([Se]c2ccc(OC)cc2OC)c(OC)c1

1. 70 µM (inactive)
2. > 100 µM (inactive)
3. 61.2 µM (inactive)

====

# System: M14
# procedure_text: NCI tumour cell line growth inhibition, 48 h
Active and inactive are the calls of the source. No stated cut-off is given here; in the data, active = GI50 up to about 1.1 µM and inactive = higher.
Classes to choose from: active, inactive

molecule="COc1c(O)cc2c(c1O)C1O[C@H](CO)C(O)[C@H](O)[C@H]1OC2=O (some centres not stated)" category=inactive
molecule=O=C1NC(=S)NC(=O)C1=Cc1ccc([N+](=O)[O-])o1 category=inactive
molecule="C#CCOCC12C=CC(O1)C1C(=O)OCC12 (configuration not stated)" category=inactive
molecule=Cc1ccc2c(c1)C(=O)N(N(C)C)CC(=O)N2 category=inactive
molecule=COC(=O)c1ccc(CCc2cc(O)c(Br)cc2O)cc1 category=inactive
molecule=COc1ccc(C[C@H]2NC[C@H](O)[C@H]2OC(C)=O)cc1 category=active

Which outcome did this test record for the molecule CC(C)(C)[Si](C)(C)OCC1OC(n2cnc3c(N)ncnc32)CC1O (configuration not stated) ?
inactive

Which outcome did this test record for the molecule CC1CCC(C(C)C2C(O)CC3C4CC=C5CC(O)CCC5(C)C4CCC32C)NC1 (configuration not stated) ?
inactive

Which outcome did this test record for the molecule O=C(n1[nH]c(=O)n(-c2ccc([N+](=O)[O-])cc2)c1=O)C(Cl)(Cl)Cl ?
inactive

====

# Tested on: IGROV-1
# procedure_text: NCI tumour cell line growth inhibition, 48 h
Activity calls are given as the source filed them. No stated cut-off is given here; in the data, active = GI50 up to about 1.1 µM and inactive = higher.
Assignment: determine reported GI50 for the given molecules.

Go through the list and state GI50 for each entry.
1. N#CC(=C1C=CC(=NO)C=C1)c1ccc(Cl)cc1
2. CON(C)C(=O)[C@H]1C[C@@]1(C)CO
3. O=C(Nc1ccc(Cl)cc1)c1cc(S(=O)(=O)N2CCNNC2=O)c(S)cc1Cl
4. O=C(COc1ccc2c(=O)cc(-c3ccccc3)oc2c1)N1CCN(c2ccccc2)CC1

1: 17.1 µM (inactive); 2: > 100 µM (inactive); 3: > 100 µM (inactive); 4: > 100 µM (inactive)

====

# System: ACHN
# procedure_text: NCI tumour cell line growth inhibition, 48 h
Active and inactive are the calls of the source. Rule as the data show it: active = GI50 up to about 1.1 µM and inactive = higher.
assay_readout: GI50

Consider the worked cases shown below.
molecule=C#Cc1cccc(NC(=O)/C=C\C(=O)O)c1 result="> 100 µM (inactive)"
molecule=O[C@@]12Cc3c([nH]c4ccccc34)[C@@H]3Oc4c(-c5ccccc5)ccc5c4[C@@]31CCN(CC1CC1)[C@@H]2C5 result="1.44 µM (inactive)"
molecule=Cc1c2c(n3c(nc4ccccc43)c1C#N)N(c1ccc(Cl)cc1)CC2 result="> 100 µM (inactive)"
molecule="COc1cc2c(cc1OC)CN1CCc3ccccc3CC1C2 (stereo not given)" result="22.6 µM (inactive)"

Quick one: GI50 of COc1cccc(/C=C(\NC(C)=O)c2nc3cc(Cl)ccc3[nH]2)c1 ?
> 100 µM (inactive)

====

Assignment: determine reported GI50 for the given compounds.
# Tested on: SK-OV-3
# procedure_text: NCI tumour cell line growth inhibition, 48 h
Active and inactive are the calls of the source. No stated cut-off is given here; in the data, active = GI50 up to about 1.1 µM and inactive = higher.

Consider the worked cases shown below.
compound="OC1(c2ccc(Cl)cc2)c2ccccc2C2=Nc3ccccc3CN21 (centres undefined)" system_tested=SK-OV-3 assay_readout=GI50 result="38.5 µM (inactive)"
compound="O=S(=O)(O)C(O)/C=C/c1ccccc1 (centres undefined)" system_tested=SK-OV-3 assay_readout=GI50 result="> 100 µM (inactive)"
compound=N#CC1=C(O)NC(O)=C(C#N)C1c1ccc(C2C(C#N)=C(O)NC(O)=C2C#N)cc1 system_tested=SK-OV-3 assay_readout=GI50 result="> 100 µM (inactive)"
compound=COc1ccc2cc(C(=O)c3ccccc3C(=O)O)ccc2c1 system_tested=SK-OV-3 assay_readout=GI50 result="> 100 µM (inactive)"
compound="CSc1nc(Cl)c2c(n1)Sc1ncnn1C2O (centres undefined)" system_tested=SK-OV-3 assay_readout=GI50 result="27.3 µM (inactive)"
compound="CCOC(=O)C12OC(CCC1=O)C(C(=O)OC)=C2C(=O)OC (centres undefined)" system_tested=SK-OV-3 assay_readout=GI50 result="> 10 µM (inactive)"

Go through the list and state GI50 for each entry.
1. COc1c(C)c2c(c(O)c1C/C=C(\C)CCC(=O)O)C(=O)OC2
2. CCCCCCCCC/C=C1/CC(CO)(COC(=O)C2CCCCC2)OC1=O (centres undefined)
3. CC(=O)C12C[C@](C#N)(N3CCCCCC3)C1C=Cc1ccccc12 (some centres undefined)

1. 1.43 µM (inactive)
2. > 100 µM (inactive)
3. > 100 µM (inactive)

====

# Tested on: SK-MEL-2
# procedure_text: NCI tumour cell line growth inhibition, 48 h
Calls of active or inactive are those of the source. No stated cut-off is given here; in the data, active = GI50 up to about 1.1 µM and inactive = higher.
Classes to choose from: active, inactive

compound="O=C1C(Cl)=C(Cl)C(Cl)(Cl)C(Cl)C1(Cl)Cl (centres undefined)" category=inactive
compound=CCOC(=O)/C(=C/c1cc(OC)ccc1OC)CC(=O)O category=inactive
compound="CC1(C)OC2C(=O)C=C(COCc3ccccc3)C2O1 (centres undefined)" category=inactive
compound=O=c1[nH]nc(-c2ccccc2)n1/N=C\c1ccccc1 category=inactive
compound=Cc1cc(C)c(C)c(-n2[nH]c(=O)n(C)c2=O)c1C category=inactive

Which outcome did this test record for the compound COc1cc(C2c3cc4c(cc3OC(NN)C2C)OCO4)cc(OC)c1O (centres undefined) ?
inactive

Which outcome did this test record for the compound COc1c(Br)cc2c(c1OC)C(Br)CCC(Br)(Br)C2=O (centres undefined) ?
active

Which outcome did this test record for the compound CC(=O)/C(=C\c1cccc([N+](=O)[O-])c1)C(=O)Nc1ccccc1C ?
inactive

Which outcome did this test record for the compound CN(C)CCCNC(CC#N)CCC#N (centres undefined) ?
inactive
